Molecular target: T1, cyno GITR-CHO (cynomolgus monkey)
T1 construct: expressed on the surface of CHO cells, construct not described; also called cynomolgus GITR expressed on the surface of CHO cells
Test: flow cytometry on cyno GITR-CHO cells
For each record, write down the corresponding EC50 (read off the curve).

Sample answers from the record:
| binder | EC50 (read off the curve) |
| --- | --- |
| hzC06v2.3 (VHH) VHH: EVQLLESGGGEVQPGGSLRLSCAASGSVFSIDAMGWYRQAPGKQRELVAVLSGISSATYAESVKGRFTISRDNAKNTLYLQMSSLRAEDTAVYYCYADVSTGWGRDAHGYWGQGTLVTV | ~4 nM |
| hzC06v1.1 (VHH) VHH: EVQLLESGGGEVQPGGSLRLSCAASGSVFSIDAMGWYRQAPGKGLELVSALSGISSATYAESVKGRFTISRDNAKNTLYLQMSSLRAEDTAVYYCYADVSTGWGRDAHGYWGQGTLVTV | ~8 nM |
| hzC06v2.2 (VHH) VHH: EVQLLESGGGEVQPGGSLRLSCAASGSVFSIDAMGWYRQAPGKGRELVAVLSGISSATYAESVKGRFTISRDNAKNTLYLQMSSLRAEDTAVYYCYADVSTGWGRDAHGYWGQGTLVTV | ~4 nM |

QUERY: Endpoint output: EC50 (read off the curve) of hzC06v1.2 (VHH) VHH: EVQLLESGGGEVQPGGSLRLSCAASGSVFSIDAMGWYRQAPGKGRELVSALSGISSATYAESVKGRFTISRDNAKNTLYLQMSSLRAEDTAVYYCYADVSTGWGRDAHGYWGQGTLVTV . Value?
RESULT: ~4 nM
